# Tested on: PC-3 prostate
# protocol.description: NCI-60 one-dose screen, 48 h
# assay.context: 10 µM unless noted
Compounds without any hit were thinned out: in the full panel of roughly 83,000, 20% have a hit. Calls of active or inactive are those of the source. How the source made its calls: active means growth percent below 10; inactive means the rest.
Choose the fitting class; nothing outside active, inactive is accepted.

Solved cases (3 shown):
1) O=C1c2c(c3c4ccccc4[nH]c3c3ccc4ccccc4c23)C(=O)N1CCN1CCOCC1 | inactive
2) CCOC(=O)c1c(C(=O)c2cn(C)c3ccc(Br)cc23)c(-c2cn(C)c3ccc(Br)cc23)n(NC(=O)OC(C)(C)C)c1C | inactive
3) CC1(C)CC(=O)C2=C(C1)N(c1ccc(OC(F)(F)F)cc1)C(N)=C(C#N)C2c1ccc(Br)cc1F (stereo not given) | inactive

What did the test return for CCOC(=O)c1c2c(n3cccc(F)c13)C(=O)c1ncccc1C2=O ?
inactive
